test system: 699152-130-R-J1-PDC complex spheroid viability; test: Anticancer human tumor 699152-130-R-J1-PDC patient-derived pancreatic carcinoma cell line growth inhibition [POLQ]; settings: second compound 10 µM; first compound 1 µM; stronger effect = lower value
Item-by-item account of viability, T/C
Could you give me the number in %? Just the number is fine.

| compound | viability, T/C [%] |
| --- | --- |
| CCCS(=O)(=O)Nc1ccc(F)c(C(=O)c2c[nH]c3ncc(-c4ccc(Cl)cc4)cc23)c1F + Cc1cccc(N(C)C(=O)C2C(O)CCN2c2nc(C)cc(C(F)(F)F)c2C#N)c1 | 146 |
| COc1cccc(OCCCN)c1-c1cc(Nc2cnc(C#N)cn2)n[nH]1 + Nc1ccc(C#CCN(C(=O)Cc2ncc(C(F)(F)F)cc2C(F)(F)F)c2ccc(F)cc2)nn1 | 60.5 |
| CC1COCCN1c1cc(-c2ccnn2C)c2ccnc(-c3ccn[nH]3)c2n1 (stereo not given) + Cc1cccc(N(C)C(=O)C2C(O)CCN2c2nc(C)cc(C(F)(F)F)c2C#N)c1 | 65.4 |
| CCCS(=O)(=O)Nc1ccc(F)c(C(=O)c2c[nH]c3ncc(-c4ccc(Cl)cc4)cc23)c1F + Nc1ccc(C#CCN(C(=O)Cc2ncc(C(F)(F)F)cc2C(F)(F)F)c2ccc(F)cc2)nn1 | 161 |
| CC1COCCN1c1cc(C2(S(C)(=N)=O)CC2)nc(-c2ccnc3[nH]ccc23)n1 (stereo not given) + COC1C(OC(N)=O)C(O)C(Oc2ccc3c(O)c(NC(=O)c4ccc(O)c(CC=C(C)C)c4)c(=O)oc3c2C)OC1(C)C | 90.7 |
| COc1cc2cc(C(=O)CCC(=O)O)sc2cc1OC + COC1C(OC(N)=O)C(O)C(Oc2ccc3c(O)c(NC(=O)c4ccc(O)c(CC=C(C)C)c4)c(=O)oc3c2C)OC1(C)C | 107 |

We now examine a further compound.
Reported 699152-130-R-J1-PDC complex spheroid viability viability, T/C for item COc1ccc([C@@H](O)c2cc(-c3ncnc4cc(N5CCOCC5)ccc34)c(F)cc2Cl)nn1 + Cc1cccc(N(C)C(=O)C2C(O)CCN2c2nc(C)cc(C(F)(F)F)c2C#N)c1 was 74.1

###

test system: 699152-130-R-J1-PDC complex spheroid viability; test: Anticancer human tumor 699152-130-R-J1-PDC cell line growth inhibition [POLQ]; conditions: second compound 0.316 µM; first compound 1 µM; stronger effect = lower value;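 further: spheroids exposed to agents for 7 days before viability reading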;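 on viability, T/C: percent of DMSO vehicle control viability so 100% = vehicle and 0% = no viable signal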
Item-by-item account of viability, T/C
Could you give me the number in %? Just the number is fine.

A selection of reference data follows.
| compound | experimental-system | viability, T/C / % |
| --- | --- | --- |
| CCc1cc2c(N3CCc4c(cc(Cn5ccnc5)cc4-c4cn(C)nc4C(F)(F)F)C3=O)ccnc2c(OC)n1 + Nc1ccc(C#CCN(C(=O)Cc2ncc(C(F)(F)F)cc2C(F)(F)F)c2ccc(F)cc2)nn1 | 699152-130-R-J1-PDC complex spheroid viability | 95.4 |
| COc1cccc2c1C(=O)c1c(O)c3c(c(O)c1C2=O)CC(O)(C(=O)CO)CC3OC1CC(N)C(O)C(C)O1 (stereo not given) + COC1C(OC(N)=O)C(O)C(Oc2ccc3c(O)c(NC(=O)c4ccc(O)c(CC=C(C)C)c4)c(=O)oc3c2C)OC1(C)C | 699152-130-R-J1-PDC complex spheroid viability | 26.1 |

Reported viability, T/C ( C#Cc1c(F)ccc2cc(O)cc(-c3ncc4c(N5CC6CCC(C5)N6)nc(OCC56CCCN5CC(F)C6)nc4c3F)c12 (stereo not given) + COC1C(OC(N)=O)C(O)C(Oc2ccc3c(O)c(NC(=O)c4ccc(O)c(CC=C(C)C)c4)c(=O)oc3c2C)OC1(C)C ) = 12.8

Reported viability, T/C ( CCc1cc2c(N3CCc4c(cc(Cn5ccnc5)cc4-c4cn(C)nc4C(F)(F)F)C3=O)cc(C)nc2c(OC)n1 + Nc1ccc(C#CCN(C(=O)Cc2ncc(C(F)(F)F)cc2C(F)(F)F)c2ccc(F)cc2)nn1 ) = 89.7

Reported viability, T/C ( CC1COCCN1c1cc(C2(O)CC3CCC(C2)O3)c2cnn(-c3ccn[nH]3)c2n1 (stereo not given) + Cc1cccc(N(C)C(=O)C2C(O)CCN2c2nc(C)cc(C(F)(F)F)c2C#N)c1 ) = 54.3

Reported viability, T/C ( CCCS(=O)(=O)Nc1ccc(F)c(C(=O)c2c[nH]c3ncc(-c4ccc(Cl)cc4)cc23)c1F + COC1C(OC(N)=O)C(O)C(Oc2ccc3c(O)c(NC(=O)c4ccc(O)c(CC=C(C)C)c4)c(=O)oc3c2C)OC1(C)C ) = 149

###

test system: 699152-130-R-J1-PDC complex spheroid viability; experiment: Anticancer human tumor 699152-130-R-J1-PDC cell line growth inhibition [POLQ]; settings: second compound 10 µM; first compound 10 µM; active = viability on the fitted dose curve at most 10% of control; inactive = the rest;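 further: spheroids exposed to agents for 7 days before viability reading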
The reply should name one outcome from active, inactive

| molecule | assigned-category |
| --- | --- |
| C#Cc1c(F)ccc2cc(O)cc(-c3ncc4c(N5CC6CCC(C5)N6)nc(OCC56CCCN5CC(F)C6)nc4c3F)c12 (stereo unspecified) + Cc1cccc(N(C)C(=O)C2C(O)CCN2c2nc(C)cc(C(F)(F)F)c2C#N)c1 | inactive |

Query string: Dear colleague, could you share the recorded outcome for O=C(c1cc(Cc2n[nH]c(=O)c3ccccc23)ccc1F)N1CCN(C(=O)C2CC2)CC1 + Cc1cccc(N(C)C(=O)C2C(O)CCN2c2nc(C)cc(C(F)(F)F)c2C#N)c1 when you have a moment?
Result string: inactive

Query string: Dear colleague, could you share the recorded outcome for COc1cccc2c1C(=O)c1c(O)c3c(c(O)c1C2=O)CC(O)(C(=O)CO)CC3OC1CC(N)C(O)C(C)O1 (stereo unspecified) + COC1C(OC(N)=O)C(O)C(Oc2ccc3c(O)c(NC(=O)c4ccc(O)c(CC=C(C)C)c4)c(=O)oc3c2C)OC1(C)C when you have a moment?
Result string: inactive

Query string: Dear colleague, could you share the recorded outcome for Nc1ccn(C2OC(CO)C(O)C2(F)F)c(=O)n1 (stereo unspecified) + Nc1ccc(C#CCN(C(=O)Cc2ncc(C(F)(F)F)cc2C(F)(F)F)c2ccc(F)cc2)nn1 when you have a moment?
Result string: inactive

###

test system: 699152-130-R-J1-PDC complex spheroid viability; experiment: Anticancer human tumor 699152-130-R-J1-PDC cell line growth inhibition [POLQ]; settings: curve of first compound; second compound 0.0316 µM;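 further: spheroids exposed to agents for 7 days before viability reading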
assay-endpoint: IC50

A selection of reference data follows.
| compound | value-observed |
| --- | --- |
| CCc1cc2c(N3CCc4c(cc(Cn5ccnc5)cc4-c4cn(C)nc4C(F)(F)F)C3=O)cc(C)nc2c(OC)n1 + Nc1ccc(C#CCN(C(=O)Cc2ncc(C(F)(F)F)cc2C(F)(F)F)c2ccc(F)cc2)nn1 | > 10 µM |
| CCc1cc2c(N3CCc4c(cc(Cn5ccnc5)cc4-c4cn(C)nc4C(F)(F)F)C3=O)cc(C)nc2c(OC)n1 + Cc1cccc(N(C)C(=O)C2C(O)CCN2c2nc(C)cc(C(F)(F)F)c2C#N)c1 | > 10 µM |

We now examine a further compound.
Reported IC50 ( O=C(c1cc(Cc2n[nH]c(=O)c3ccccc23)ccc1F)N1CCN(C(=O)C2CC2)CC1 + Nc1ccc(C#CCN(C(=O)Cc2ncc(C(F)(F)F)cc2C(F)(F)F)c2ccc(F)cc2)nn1 ) = > 10 µM

###

Tested on: 699152-130-R-J1-PDC complex spheroid viability
Experiment: Anticancer human tumor 699152-130-R-J1-PDC cell line growth inhibition [POLQ];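 further: spheroids exposed to agents for 7 days before viability reading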;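 on viability, T/C: percent of DMSO vehicle control viability so 100% = vehicle and 0% = no viable signal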
Settings: second compound 0.0316 µM; first compound 0.316 µM; stronger effect = lower value
Protocol: Multicellular complex tumor spheroid response to Polymerase (POL) inhibitors (novobiocin, ART-558, RP6685) in combination with a variety of drugs and investigational agents in selected tumor cell lines The POL inhibitors (novobiocin, ART-558, and RP6685) were evaluated both individually and in combination with standard of care and investigational anticancer small molecules within a complex spheroid model of solid tumors. . […]
assay-endpoint: viability, T/C (%)
Could you give me the number in %? Just the number is fine.

A selection of reference data follows.
| compound | viability, T/C / % |
| --- | --- |
| CCc1cc2c(N3CCc4c(cc(Cn5ccnc5)cc4-c4cn(C)nc4C(F)(F)F)C3=O)ccnc2c(OC)n1 + Nc1ccc(C#CCN(C(=O)Cc2ncc(C(F)(F)F)cc2C(F)(F)F)c2ccc(F)cc2)nn1 | 91.8 |
| COc1cc2cc(C(=O)CCC(=O)O)sc2cc1OC + Nc1ccc(C#CCN(C(=O)Cc2ncc(C(F)(F)F)cc2C(F)(F)F)c2ccc(F)cc2)nn1 | 90.2 |

We now examine a further compound.
Reported viability, T/C ( CCc1c2c(nc3ccc(O)cc13)-c1cc3c(c(=O)n1C2)COC(=O)[C@]3(O)CC + Cc1cccc(N(C)C(=O)C2C(O)CCN2c2nc(C)cc(C(F)(F)F)c2C#N)c1 ) = 30.4
